Reported pKd values follow for various binders
target: T1, His-tagged human CD40 extracellular domain (ECD) (human, UniProt P25942 21-193); assay: SPR (IBIS MX96), antibody captured, monovalent CD40 ECD in solution
T1 construct: Bought from Sino Biological; also called human CD40 ECD; CD40-his ECD antigen; not shown: His tag
T1 sequence (P25942 21-193): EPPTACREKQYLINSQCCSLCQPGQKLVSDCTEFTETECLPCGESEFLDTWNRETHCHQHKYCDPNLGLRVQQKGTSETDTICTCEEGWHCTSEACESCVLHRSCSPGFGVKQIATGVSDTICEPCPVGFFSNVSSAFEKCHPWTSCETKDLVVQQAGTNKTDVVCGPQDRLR
pKd: −log10 of the molar value.

{"BINDER": "antibody 16040 (antibody, human IgG1, kappa, L234A L235A, V domains shown, Fully human IgG1-LALA / kappa) VH: QVQLVESGGGVVQPGRSLRLSCAASGFTFSIYGMHWVRQAPGKGLEWVAVISYDGSNKYYADSVKGRFTISRDNSKNTLYLQMNSLRAEDTAVYYCAAGNWFDPWGQGTLVTVSS VL: DIQLTQSPSFLSASVGDRVTITCRASQGISSYLAWYQQKPGKAPKLLIYAASTLQSGVPSRFSGSGSGTEFTLTISSLQPEDFATYYCQQLNRYPLTFGGGTKVEIKR", "pKd": 8.15}
{"BINDER": "antibody 16154 (antibody, human IgG1, kappa, L234A L235A, V domains shown, Fully human IgG1-LALA / kappa) VH: EVQLVESGGGLVQPGGSLRLSCAASGFTFTSYWMSWVRQAPGKGLEWVANIKQDGSEKYYVDSVKGRFTISRDNAKNSLYLQMNSLRAEDTAVYYCARGPVAGPYWYFDLWGRGTLVTVSS VL: AIQMTQSPSSLSASVGDRVTITCRASQGIRNDLGWYQQKPGKAPKLLIYAASSLQSGVPSRFSGSGSGTDFTLTISSLQPEDFATYYCLQDYHYPLTFGGGTKVEIKR", "pKd": 8.24}
{"BINDER": "antibody 15833 (antibody, human IgG1, kappa, L234A L235A, V domains shown, Fully human IgG1-LALA / kappa) VH: QVQLVESGGGVVQPGRSLRLSCAASGFTFSNYAMHWVRQAPGKGLEWVALISFDGSYKYYADSVKGRFTISRDNSKNTLYLQMNSLRAEDTAVYYCVKDAGYSSSWFFDYWGQGTLVTVSS VL: DIQMTQSPSSVSASVGDRVTITCRASQDISSWLAWYQQKPGKAPKLLIYAASSLQSGVPSRFSGSGSGTDFTLTISSLQPEDFGNYYCQQANSFPWTFGQGTKVEIKR", "pKd": 8.55}
{"BINDER": "antibody 15948 (antibody, human IgG1, kappa, L234A L235A, V domains shown, Fully human IgG1-LALA / kappa) VH: QVQLVESGGGVVQPGRSLRLSCAASGFTFSIYGMHWVRQAPGKGLEWVAVISYDGSNKYYADSVKGRFTISRDNSKNTLYLQMNSLRAEDTAVYYCAKDPDYYGSGSYYPDWGQGTLVTVSS VL: DIQLTQSPSFLSASVGDRVTITCRASQGISSYLAWYQQKPGKAPKLLIYAASTLQSGVPSRFSGSGSGTEFTLTISSLQPEDFATYYCQQVKSYPLTFGGGTKVEIKR", "pKd": 8.51}
